Provide the recorded pIC50 for the entries that follow.
Target chain: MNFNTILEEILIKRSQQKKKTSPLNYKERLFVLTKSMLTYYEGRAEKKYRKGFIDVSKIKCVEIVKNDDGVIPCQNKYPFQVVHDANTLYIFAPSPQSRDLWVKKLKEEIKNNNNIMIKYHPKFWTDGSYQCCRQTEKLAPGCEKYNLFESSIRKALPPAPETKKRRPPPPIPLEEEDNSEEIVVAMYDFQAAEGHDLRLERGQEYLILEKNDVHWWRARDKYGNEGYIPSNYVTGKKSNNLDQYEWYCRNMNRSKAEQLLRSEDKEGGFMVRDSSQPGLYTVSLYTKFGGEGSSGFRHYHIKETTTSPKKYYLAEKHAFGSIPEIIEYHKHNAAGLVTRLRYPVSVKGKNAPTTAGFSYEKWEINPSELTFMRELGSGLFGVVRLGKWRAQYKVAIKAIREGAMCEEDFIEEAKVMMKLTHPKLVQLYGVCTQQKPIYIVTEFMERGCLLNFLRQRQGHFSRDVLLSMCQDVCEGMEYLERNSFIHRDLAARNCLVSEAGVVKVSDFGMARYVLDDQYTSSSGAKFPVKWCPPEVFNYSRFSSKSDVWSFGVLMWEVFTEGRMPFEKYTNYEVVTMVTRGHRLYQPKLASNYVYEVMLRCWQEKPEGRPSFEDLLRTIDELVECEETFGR
Give bare numbers, as −log10 of the molar value.

Past entries and their recorded results:
Compound Smiles: CC(C)(C)c1nc(C(=O)NCc2ccc(-c3ccnc4[nH]nc(N5CCC[C@H](C(=O)O)C5)c34)cc2F)no1
pIC50: 6.41

Compound Smiles: CN(C)C/C=C/C(=O)N1CC[C@@H](Nc2n[nH]c3nccc(-c4ccc(CNC(=O)c5noc(C(C)(C)C)n5)c(F)c4)c23)C1
pIC50: 6.76

Compound Smiles: CC(C)c1noc(C(=O)N[C@H](C)c2ccc(-c3ccnc4[nH]nc(N5CCS(=O)(=O)CC5)c34)cc2)n1
pIC50: 5.62

Hello, I would appreciate it if you could give pIC50 for each entry below.
1. N[C@@H]1CCN(c2n[nH]c3nccc(-c4ccc(CNC(=O)c5nc6c(s5)CCCC6)c(F)c4)c23)C1
2. CN(Cc1ccc(-c2ccnc3[nH]nc(N4CC[C@@H](N)C4)c23)cc1F)C(=O)c1nc(C(C)(C)C)no1
3. CC(C)(C)c1nc(C(=O)NCc2ccc(-c3ccnc4[nH]nc(N[C@H]5CC[C@@H](N)CC5)c34)cc2F)no1
4. CC(C)(C)c1nc(C(=O)NCc2ccc(-c3ccnc4[nH]nc(N[C@H]5CC[C@H](N)CC5)c34)cc2F)no1
5. C[C@@H](NC(=O)c1nc(C(C)(C)C)no1)c1ccc(-c2ccnc3[nH]nc(N4CCCCC4)c23)cc1

// result
1: 5.15; 2: 5.38; 3: 5.49; 4: 5.08; 5: 5.52

Items follow; give pIC50 for each.
1. CC(C)(C)c1nc(C(=O)NCc2ccc(-c3ccnc4[nH]nc(NC5CNC5)c34)cc2F)no1
2. C[C@@H](NC(=O)c1nc(C(C)(C)C)no1)c1ccc(-c2ccnc3[nH]nc(N4CCNCC4)c23)cc1
3. C[C@@H]1[C@H](Nc2n[nH]c3nccc(-c4ccc(CNC(=O)c5noc(C(C)(C)C)n5)c(F)c4)c23)CCCN1C(=O)CC#N

// result
[6.07, 5.34, 5.24]
